- target_desc: CDK7/cyclin H (Homo sapiens, UniProt P50613)
- Sequence (P50613 whole entry, species assumed): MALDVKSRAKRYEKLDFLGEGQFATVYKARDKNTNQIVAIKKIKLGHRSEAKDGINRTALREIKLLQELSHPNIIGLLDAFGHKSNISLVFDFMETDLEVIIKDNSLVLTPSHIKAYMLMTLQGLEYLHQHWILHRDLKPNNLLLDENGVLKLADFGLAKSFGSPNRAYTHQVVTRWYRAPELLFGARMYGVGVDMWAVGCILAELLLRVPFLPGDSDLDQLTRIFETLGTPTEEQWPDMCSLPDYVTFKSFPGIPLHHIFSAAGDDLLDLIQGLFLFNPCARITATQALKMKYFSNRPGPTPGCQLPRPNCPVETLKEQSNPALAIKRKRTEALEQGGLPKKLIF
- Sequence (P51946 whole entry partner, species assumed): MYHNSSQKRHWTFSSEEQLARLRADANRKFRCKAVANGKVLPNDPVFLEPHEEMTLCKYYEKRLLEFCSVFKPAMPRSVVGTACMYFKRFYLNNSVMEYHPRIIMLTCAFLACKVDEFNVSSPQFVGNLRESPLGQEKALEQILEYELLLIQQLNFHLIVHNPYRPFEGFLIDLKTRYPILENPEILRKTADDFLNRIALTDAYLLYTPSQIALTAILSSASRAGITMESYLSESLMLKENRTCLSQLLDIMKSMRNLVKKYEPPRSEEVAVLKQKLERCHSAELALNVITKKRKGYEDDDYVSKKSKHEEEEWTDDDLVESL
- assay_comment: Kinase assay, radioactive phosphate incorporation, CDK7/cyclin H
- particulars: 100 μM ATP, 30° C.; read-out: Kinase inhibition IC50 CDK7/cyclin H
In this section, each of the molecules is paired with its reported IC50.
A number alone suffices; assume nM.

CN(c1cccc(-c2ccnc(Nc3cccc(O)c3)n2)c1)S(C)(=O)=O [Compound 130]: 1300
CCN(Cc1cccc(-c2ccnc(Nc3cccc([N+](=O)[O-])c3)n2)c1)C(C)C [Compound 46]: 130
Oc1cccc(Nc2nccc(-c3cccc(CNCc4ccccc4)c3)n2)c1 [Compound 28]: 2600

Would you kindly look at the next entry?
// IC50 lookup, key: O=[N+]([O-])c1cccc(Nc2nccc(-c3cccc(CN4CCCCC4CO)c3)n2)c1 (stereo not shown) [Compound 79] 50
